Test: Luminescence Cell-Based Dose Response HTS to Identify Activators of Luciferase Translation or Activity in H4 […] Cells. [Related pubchem assays: 1829 (Project Summary), 1814 (Primary HTS)]
Format: functional
Active and inactive are the calls of the source.
reportedProperty: EC50

[[record]]
smilestext = "Cc1c([N+](=O)[O-])c(C(=O)Nc2ccc3c(c2)OCCO3)nn1C"
reportedproperty = "EC50"
measuredresult = "11 µM (active)"

[[record]]
smilestext = "COc1ccc(/C=N/NC(=O)c2ccc[nH]2)cc1"
reportedproperty = "EC50"
measuredresult = "0.114 µM (active)"

[[record]]
smilestext = "Cc1cc(=O)oc2cc(NC(=O)c3ccccc3Cl)ccc12"
reportedproperty = "EC50"
measuredresult = "< 0.1 µM (active)"

[[record]]
smilestext = "CC(C)=C(NC(=O)c1ccccc1)C(=O)N/N=C/c1ccc(O)cc1"
reportedproperty = "EC50"
measuredresult = "11.8 µM (active)"


* * *

Listed here are molecules together with their documented IC50.
Target: Eukaryotic translation initiation factor 4E (Mus musculus)
Sequence (P63073 whole entry): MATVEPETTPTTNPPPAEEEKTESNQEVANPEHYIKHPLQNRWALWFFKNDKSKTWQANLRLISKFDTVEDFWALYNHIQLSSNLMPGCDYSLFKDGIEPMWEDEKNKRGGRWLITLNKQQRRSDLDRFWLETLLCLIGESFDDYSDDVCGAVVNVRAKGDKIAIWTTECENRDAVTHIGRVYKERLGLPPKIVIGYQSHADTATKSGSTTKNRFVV
Test: eIF4E–eIF4G protein interaction inhibitors, dose response, biochemical, TR-FRET (AID 855);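 note: potency for disrupting eIF4E binding to eIF4GI seen as loss of FRET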
Format: functional
Calls of active or inactive are those of the source.
reportedProperty: IC50

[[record]]
molecule = "Cc1ccc(OCc2nnc(-c3ccccn3)[nH]2)cc1"
reportedproperty = "IC50"
measuredresult = "> 64 µM (inactive)"

[[record]]
molecule = "COc1ccc([C@H]2[C@H](C(C)=O)N3N=Cc4ccccc4C3C23C(=O)OC(C)(C)OC3=O)cc1 (stereo partly specified)"
reportedproperty = "IC50"
measuredresult = "> 64 µM (inactive)"

[[record]]
molecule = "Nc1ccc(O)c2c1C(=O)c1ccccc1C2=O"
reportedproperty = "IC50"
measuredresult = "25.7 µM (active)"

[[record]]
molecule = "O=c1oc2c(O)c(O)cc3c(=O)oc4c(O)c(O)cc1c4c23"
reportedproperty = "IC50"
measuredresult = "47.7 µM (inactive)"

[[record]]
molecule = "O=C(Cc1cccs1)Nc1ccc(S(=O)(=O)N2CCCC2)cc1"
reportedproperty = "IC50"
measuredresult = "50 µM (inactive)"

[[record]]
molecule = "Cc1ccc(CNC(=O)c2ccc(-n3cccc3)cc2)cc1"
reportedproperty = "IC50"
measuredresult = "50 µM (inactive)"


* * *

Target: Induced myeloid leukemia cell differentiation protein Mcl-1 (Homo sapiens, UniProt Q07820)
Sequence (Q07820 whole entry): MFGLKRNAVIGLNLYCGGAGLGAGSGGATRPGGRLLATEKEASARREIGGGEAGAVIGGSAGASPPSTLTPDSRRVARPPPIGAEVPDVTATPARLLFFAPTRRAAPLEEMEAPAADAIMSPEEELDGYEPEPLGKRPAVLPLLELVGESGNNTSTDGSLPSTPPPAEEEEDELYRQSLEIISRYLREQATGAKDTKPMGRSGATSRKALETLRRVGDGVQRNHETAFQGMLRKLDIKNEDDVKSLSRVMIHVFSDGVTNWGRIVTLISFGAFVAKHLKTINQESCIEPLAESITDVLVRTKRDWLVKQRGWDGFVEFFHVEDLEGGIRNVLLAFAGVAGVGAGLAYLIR
Type: functional
Active and inactive are the calls of the source.
Listed here are compounds together with their documented IC50.
reportedProperty: IC50

[[record]]
compound = "COc1ccccc1/C=c1\\sc2nc(-c3ccco3)nn2c1=O"
testedon = "Induced myeloid leukemia cell differentiation protein Mcl-1 (Homo sapiens, UniProt Q07820)"
reportedproperty = "IC50"
measuredresult = "7.38 µM (active)"

[[record]]
compound = "CCOC(=O)C1=C(Nc2ccc(OC)cc2)S/C(=C\\c2cc(OC)c(O)c(OC)c2)C1=O"
testedon = "Induced myeloid leukemia cell differentiation protein Mcl-1 (Homo sapiens, UniProt Q07820)"
reportedproperty = "IC50"
measuredresult = "4.24 µM (not active)"

[[record]]
compound = "Cc1ccc(CNC(=O)c2ccc(-n3cccc3)cc2)cc1"
testedon = "Induced myeloid leukemia cell differentiation protein Mcl-1 (Homo sapiens, UniProt Q07820)"
reportedproperty = "IC50"
measuredresult = "3.27 µM (active)"

[[record]]
compound = "Nc1ccc(O)c2c1C(=O)c1ccccc1C2=O"
testedon = "Induced myeloid leukemia cell differentiation protein Mcl-1 (Homo sapiens, UniProt Q07820)"
reportedproperty = "IC50"
measuredresult = "4.35 µM (active)"

[[record]]
compound = "O=c1oc2c(O)c(O)cc3c(=O)oc4c(O)c(O)cc1c4c23 [ELLAGIC ACID]"
testedon = "Induced myeloid leukemia cell differentiation protein Mcl-1 (Homo sapiens, UniProt Q07820)"
reportedproperty = "IC50"
measuredresult = "> 54 µM (active)"

